The origin of these recorded values is PubChem BioAssay (EPA / NIEHS).

# Procedure Summary: BSK_4H_Eotaxin3: BioMAP Diversity Plus: 4H Assay for Eotaxin 3 Biomarker Activity (AID 2283000)
# Recorded Conditions: primary human endothelial cells (HUVEC); actives raise or lower the signal
Active and inactive are the calls of the source. Rule for the calls: active = hit-call score of the fitted dose curve at least 0.9, where 1 is the maximum; inactive = score below 0.9.
API: response.call in True for active, False for inactive

Field: example entries. Status: answers known.
{"Compound": "Nc1ccc(Nc2ccccc2)cc1", "Label": "True"}
{"Compound": "CCOc1cccc(-n2cc(C(=O)N3CCN(c4cc(C(=O)O)c5ccccc5c4)CC3)nc2-c2ccc(C)cc2)c1", "Label": "True"}
{"Compound": "CC(C)=CCCC(C)CCO (stereo not drawn)", "Label": "False"}
{"Compound": "O=C(O)c1cc(N=Nc2ccc(S(=O)(=O)Nc3ccccn3)cc2)ccc1O", "Label": "False"}
{"Compound": "CC(C)(O)c1coc(S(=O)(=O)NC(=O)Nc2c3c(cc4c2CCC4)CCC3)c1", "Label": "False"}

(Q) Each compound tested received a call. Report the one for `CC(C)CCCCCCOC(=O)c1ccc(C(=O)OCCCCCCC(C)C)c(C(=O)OCCCCCCC(C)C)c1` .
(A) False

(Q) Each compound tested received a call. Report the one for `O=C1CCCCCN1` .
(A) False

(Q) Each compound tested received a call. Report the one for `Cn1c(=O)c2c(ncn2C)n(C)c1=O` .
(A) False

(Q) Each compound tested received a call. Report the one for `Clc1nc(Cl)c(Cl)c(Cl)c1Cl` .
(A) False

(Q) Each compound tested received a call. Report the one for CC(C)CC(C)(O)C#CC(C)(O)CC(C)C (stereo not drawn) .
(A) False

(Q) Each compound tested received a call. Report the one for `CC1(C)C(=O)N(Br)C(=O)N1Br` .
(A) False

(Q) Each compound tested received a call. Report the one for O=C1CCC(N2C(=O)c3ccccc3C2=O)C(=O)N1 (stereo not drawn) .
(A) False

(Q) Each compound tested received a call. Report the one for `CCNc1ccccc1` .
(A) False

---

# Read-out: CD38, CD38 (gene 952)
# Procedure Summary: BSK_SAg_CD38: BioMAP Diversity Plus: SAg Assay for CD38 Biomarker Activity (AID 2283087)
# Recorded Conditions: primary human HUVEC with PBMC; actives raise or lower the signal
Calls of active or inactive are those of the source. How the source made its calls: active means hit-call score of the fitted dose curve at least 0.9, where 1 is the maximum; inactive means score below 0.9.
API: response.call in active, inactive

(Q) Each compound tested received a call. Report the one for `NC(=O)NO` .
(A) inactive

(Q) Each compound tested received a call. Report the one for `CC1(C)C(=O)N(Br)C(=O)N1Br` .
(A) inactive

(Q) Each compound tested received a call. Report the one for `CC1=CC(=O)CC(C)(C)C1` .
(A) inactive

(Q) Each compound tested received a call. Report the one for `COCCOc1cc2cc(C(=O)NC3CCN(C(C)C)CC3)n(CC(=O)Nc3ccc(Cl)cn3)c2cn1` .
(A) inactive

(Q) Each compound tested received a call. Report the one for `O=C(O)c1cccc(Oc2ccccc2)c1` .
(A) inactive

(Q) Each compound tested received a call. Report the one for `CCOC(=O)CC(CC(=O)OCC)(OC(C)=O)C(=O)OCC` .
(A) inactive

(Q) Each compound tested received a call. Report the one for `CC(=O)OC[C@H]1O[C@@](COC(C)=O)(O[C@H]2O[C@H](COC(C)=O)[C@@H](OC(C)=O)[C@H](OC(C)=O)[C@H]2OC(C)=O)[C@@H](OC(C)=O)[C@@H]1OC(C)=O` .
(A) inactive

(Q) Each compound tested received a call. Report the one for `C[C@](N)(Cc1ccc(O)c(O)c1)C(=O)O` .
(A) inactive

---

# Subject Of Test: human Peroxisome Proliferator-activated Receptor alpha (PPARa), PPARA (gene 5465) (UniProt Q07869)
# Sequence (Q07869 whole entry, looked up): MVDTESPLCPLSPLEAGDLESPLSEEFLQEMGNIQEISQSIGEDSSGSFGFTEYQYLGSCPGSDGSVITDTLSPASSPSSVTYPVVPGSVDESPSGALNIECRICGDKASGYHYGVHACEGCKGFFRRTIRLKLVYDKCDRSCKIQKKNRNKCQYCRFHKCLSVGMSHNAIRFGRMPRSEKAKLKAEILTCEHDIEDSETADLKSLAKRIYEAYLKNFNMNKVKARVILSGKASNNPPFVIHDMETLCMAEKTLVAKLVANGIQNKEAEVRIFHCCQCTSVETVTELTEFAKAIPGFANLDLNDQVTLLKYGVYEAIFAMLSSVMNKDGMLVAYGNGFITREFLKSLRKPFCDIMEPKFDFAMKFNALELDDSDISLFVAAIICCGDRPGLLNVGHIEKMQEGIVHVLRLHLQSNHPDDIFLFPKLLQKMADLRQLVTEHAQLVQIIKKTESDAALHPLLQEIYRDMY
# Procedure Summary: ATG_PPARa_TRANS: Attagene TRANS-FACTORIAL HepG2 Assay for human Peroxisome Proliferator-activated Receptor alpha (PPARa) (AID 2283001)
# Method: ATG_TRANS is a cell-based, multiplexed-readout assay that uses HepG2, a human liver cell line, with measurements taken at 24 hours after chemical dosing in a 24-well plate.ATG_PPARa_TRANS is one of 30 assay component(s) measured or calculated from the ATG_TRANS assay. […] This assay endpoint, ATG_PPARa_TRANS, was analyzed in the positive analysis fitting direction relative to DMSO as the negative control and baseline of activity. […]
Inconclusive results are not listed. Calls of active or inactive are those of the source. Rule for the calls: active = hit-call score of the fitted dose curve at least 0.9, where 1 is the maximum; inconclusive = response in the unintended direction; inactive = score below 0.9.

{"Molecule": "O=c1[nH]c2ccc(S(=O)CCN3CCC(Cc4ccc(F)cc4)CC3)cc2o1 (stereo not drawn)", "outcome": "inactive"}
{"Molecule": "COCCOCCOCCOC", "outcome": "inactive"}
{"Molecule": "CCCCCCCCO", "outcome": "inactive"}

---

# Subject Of Test: rat Neurokinin-3 Receptor (NK3), Tacr3 (gene 24808)
# Procedure Summary: NVS_GPCR_rNK3: NovaScreen (NVS) G Protein-Coupled Receptor Assay for rat Neurokinin-3 Receptor (NK3) (AID 2283310)
Results filed as inconclusive are left out. Calls of active or inactive are those of the source. Rule for the calls: active = hit-call score of the fitted dose curve at least 0.9, where 1 is the maximum; inconclusive = response in the unintended direction; inactive = score below 0.9.
API: response.call in active, inactive

Field: example entries. Status: answers known.
{"Compound": "COc1ccc(-n2nc(C(F)F)cc2-c2ccc(S(C)=O)cc2)cc1 (stereo not given)", "Subject Of Test": "rat Neurokinin-3 Receptor (NK3), Tacr3 (gene 24808)", "Label": "inactive"}
{"Compound": "CNS(=O)(=O)c1cc(C(=O)N2CCC(CCN3C4CCC3CC(n3c(C)nc5ccccc53)C4)(c3cccc(F)c3)CC2)c(Cl)cc1F (stereo not given)", "Subject Of Test": "rat Neurokinin-3 Receptor (NK3), Tacr3 (gene 24808)", "Label": "active"}
{"Compound": "CN(C)c1ccc(N=NS(=O)(=O)O)cc1", "Subject Of Test": "rat Neurokinin-3 Receptor (NK3), Tacr3 (gene 24808)", "Label": "inactive"}
{"Compound": "CCOc1cccc(-n2cc(C(=O)N3CCN(c4cc(C(=O)O)c5ccccc5c4)CC3)nc2-c2ccc(C)cc2)c1", "Subject Of Test": "rat Neurokinin-3 Receptor (NK3), Tacr3 (gene 24808)", "Label": "active"}

Consider the additional compound presented here.
(Q) Each compound tested received a call. Report the one for `CCOC(=O)CC(CC(=O)OCC)(OC(C)=O)C(=O)OCC` .
(A) inactive

---

# Subject Of Test: Cellular tumor antigen p53 (Homo sapiens)
# Procedure Summary: TOX21_p53_BLA_p3_ratio: Tox21 HCT-116 p53 Agonism Beta-lactamase Assay, Ratio, Phase 3 (AID 2283596)
# Method: TOX21_p53_BLA_p3 is a cell-based, single-readout assay that uses HCT116, a human intestinal cell line, […] in a 1536-well plate.TOX21_p53_BLA_p3_ratio is an assay readout measuring reporter gene via receptor activity and designed using inducible reporter (beta lactamase induction) detected with GAL4 b-lactamase reporter gene. […] This assay endpoint, TOX21_p53_BLA_p3_ratio, was analyzed in the positive analysis fitting direction relative to DMSO as the negative control and baseline of activity. […]
Results filed as inconclusive are left out. The source made the active and inactive calls. The calls were made as follows: active = hit-call score of the fitted dose curve at least 0.9, where 1 is the maximum; inconclusive = response in the unintended direction; inactive = score below 0.9.
API: response.call in active, inactive

Field: example entries. Status: answers known.
{"Molecule": "COCCOc1cc2cc(C(=O)NC3CCN(C(C)C)CC3)n(CC(=O)Nc3ccc(Cl)cn3)c2cn1", "Label": "inactive"}
{"Molecule": "CC(C)(O)c1coc(S(=O)(=O)NC(=O)Nc2c3c(cc4c2CCC4)CCC3)c1", "Label": "inactive"}
{"Molecule": "O=C1OC(=O)C2C3C=CC(C3)C12 (configuration not stated)", "Label": "inactive"}
{"Molecule": "CCOc1cccc(-n2cc(C(=O)N3CCN(c4cc(C(=O)O)c5ccccc5c4)CC3)nc2-c2ccc(C)cc2)c1", "Label": "active"}
{"Molecule": "O=C1CCCCCN1", "Label": "inactive"}
{"Molecule": "Clc1nc(Cl)c(Cl)c(Cl)c1Cl", "Label": "inactive"}
{"Molecule": "Oc1ccc2c(c1)-c1ccccc1C2", "Label": "inactive"}
{"Molecule": "CC(O)CN(CCN(CC(C)O)CC(C)O)CC(C)O (configuration not stated)", "Label": "inactive"}
{"Molecule": "CN(C)c1ccc(N=NS(=O)(=O)O)cc1", "Label": "inactive"}
{"Molecule": "CCC(C)(C)C(=O)O[C@H]1C[C@@H](C)C=C2C=C[C@H](C)[C@H](CC[C@@H]3C[C@@H](O)CC(=O)O3)[C@H]21", "Label": "inactive"}

(Q) Each molecule tested received a call. Report the one for `CC(C)=CCC/C(C)=C\CO` .
(A) inactive

(Q) Each molecule tested received a call. Report the one for `CC(=O)OCCC(C)C` .
(A) inactive

---

# Subject Of Test: Muscarinic acetylcholine receptor M5 (Homo sapiens) (UniProt P08912)
# Sequence (P08912 whole entry, looked up): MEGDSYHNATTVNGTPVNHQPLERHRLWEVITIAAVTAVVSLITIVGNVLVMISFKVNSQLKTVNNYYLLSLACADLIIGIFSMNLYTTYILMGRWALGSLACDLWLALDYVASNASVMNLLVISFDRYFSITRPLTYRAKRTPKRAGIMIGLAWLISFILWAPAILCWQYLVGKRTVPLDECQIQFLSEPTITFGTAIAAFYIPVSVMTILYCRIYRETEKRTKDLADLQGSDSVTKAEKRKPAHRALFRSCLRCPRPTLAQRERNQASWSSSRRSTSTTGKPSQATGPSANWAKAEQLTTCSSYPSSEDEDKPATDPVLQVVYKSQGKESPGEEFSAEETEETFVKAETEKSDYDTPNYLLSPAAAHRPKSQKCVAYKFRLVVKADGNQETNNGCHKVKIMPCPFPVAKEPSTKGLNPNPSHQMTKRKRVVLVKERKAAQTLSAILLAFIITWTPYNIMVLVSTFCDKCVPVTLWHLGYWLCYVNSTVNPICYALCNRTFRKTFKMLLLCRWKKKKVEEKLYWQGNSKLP
# Procedure Summary: NVS_GPCR_hM5: NovaScreen (NVS) G Protein-Coupled Receptor Assay for human Muscarinic, M5 Receptor (AID 2283275)
Calls of active or inactive are those of the source. The calls were made as follows: active = hit-call score of the fitted dose curve at least 0.9, where 1 is the maximum; inconclusive = response in the unintended direction; inactive = score below 0.9.
API: response.call in True (active), False (inactive)

Field: example entries. Status: answers known.
{"Molecule": "COc1cccc(-c2ccc(/C=C\\CN3CCCCCC3)cc2Cl)c1", "Label": "True"}
{"Molecule": "CCCN(C1CCN(C(=O)C2CCNCC2)CC1)[C@@H]1CCc2ccc(OC)cc2C1", "Label": "True"}
{"Molecule": "CCOC(=O)c1ccc(C2CCC(NC[C@H](O)COc3ccc(O)c(NS(C)(=O)=O)c3)CC2)cc1 (some centres not stated)", "Label": "True"}
{"Molecule": "CNS(=O)(=O)c1cc(C(=O)N2CCC(CCN3C4CCC3CC(n3c(C)nc5ccccc53)C4)(c3cccc(F)c3)CC2)c(Cl)cc1F (configuration not stated)", "Label": "False"}
{"Molecule": "Cc1[nH]cnc1C[C@H]1CCc2c(C)c3ccccc3n2C1=O", "Label": "True"}

(Q) Each molecule tested received a call. Report the one for CCOC(=O)COc1ccc2c(c1)CC(NCC(O)c1cccc(Cl)c1)CC2 (configuration not stated) .
(A) True

(Q) Each molecule tested received a call. Report the one for `COCCOc1cc2cc(C(=O)NC3CCN(C(C)C)CC3)n(CC(=O)Nc3ccc(Cl)cn3)c2cn1` .
(A) False
